These data points were gathered from PubChem BioAssay.

The compounds listed here are annotated with their viability.
Assay: drug combination growth inhibition, ovarian cancer – cell-based, oncology-focused library, rucaparib conditional, profiling panel (AID 1508598)
Conditions: patient-derived ovarian cancer cells, CellTiter-Glo viability, 144 h; at 0.0195 µM; OCI-C5x cells; without rucaparib; stronger effect = lower value
metric: viability (%)

C[C@]12C=CC(=O)C=C1CC[C@@H]1[C@H]2C(=O)C[C@@]2(C)[C@H]1CC[C@@]2(O)C(=O)CO: 102
CO[C@H]1/C=C\C=C(\C)C(=O)NC2=CC(=O)C(NCCN(C)C)=C(C[C@@H](C)C[C@H](OC)[C@H](O)[C@@H](C)/C=C(\C)[C@@H]1OC(N)=O)C2=O: 82.9
COc1cccc2c1C(=O)c1c(O)c3c(c(O)c1C2=O)C[C@@](O)(C(C)=O)C[C@H]3O[C@H]1C[C@H](N)[C@H](O)[C@H](C)O1: 201
CC(C)(C(=O)NCC(F)(F)C(F)(F)F)C(=O)N[C@H]1C(=O)Nc2ccccc2-c2ccccc21: 117
CO[C@H]1C[C@@H]2CC[C@@H](C)[C@@](O)(O2)C(=O)C(=O)N2CCCC[C@H]2C(=O)O[C@H]([C@@H](C)C[C@@H]2CC[C@@H](OCCO)[C@H](OC)C2)CC(=O)[C@H](C)/C=C(\C)[C@H](O)[C@@H](OC)C(=O)[C@H](C)C[C@H](C)/C=C/C=C/C=C/1C: 112
c1ccc(Cn2c(-c3ccc(OC[C@H](C4CCNCC4)n4c(-c5ccccc5)nc5ccccc54)cc3)nc3ccccc32)cc1: 107
CC(=O)O[C@]12CO[C@@H]1C[C@H](O)[C@]1(C)C(=O)[C@H](O)C3=C(C)[C@H](OC(=O)[C@H](O)[C@@H](NC(=O)OC(C)(C)C)c4ccccc4)C[C@](O)([C@H](OC(=O)c4ccccc4)C21)C3(C)C (stereo partly specified): 35.3
C[C@@]1(c2nc3c(C(N)=O)cccc3[nH]2)CCCN1: 106
CCOC(=O)NCCCC(=O)NCCc1ccccc1: 115
COc1cccc(-c2cc(F)ccc2[C@H]2Cc3nc(N)nc(C)c3C(=O)N2)n1: 41.2
Nc1ncn([C@@H]2O[C@H](CO)[C@@H](O)[C@@H]2O)c(=O)n1: 129
CCc1c2c(nc3ccc(OC(=O)N4CCC(N5CCCCC5)CC4)cc13)-c1cc3c(c(=O)n1C2)COC(=O)[C@@]3(O)CC: 110
Cc1cc([N+](=O)[O-])ccc1NS(=O)(=O)c1cc(Cl)ccc1Cl: 110
CC#C[C@@]1(O)CC[C@H]2[C@@H]3CCC4=CC(=O)CCC4=C3[C@H](c3ccc(N(C)C)cc3)C[C@@]21C: 110
O=C(/C=C/c1ccc2ccccc2n1)c1ccncc1: 130
Cc1cc(C)c(S(=O)(=O)n2cc(C)cc2C)c(C)c1: 94
